TEST_METHOD_NOTES: Orally administered Posaconazole: plasma Cmax/Cavg by quartile and response rate for aspergillosis
Type: in vivo, patients
EXPERIMENTAL_SETUP: human, plasma, po, 800 mg/day, Quartile 3, n = 17
METRIC: Cmax (ng/mL)
Write the value in ng/mL as a bare number.

Which Cmax value belongs to CCC([C@@H](C)O)n1ncn(-c2ccc(N3CCN(c4ccc(OC[C@@H]5CO[C@@](Cn6cncn6)(c6ccc(F)cc6F)C5)cc4)CC3)cc2)c1=O (stereo partly shown) ?
852

* * *

TEST_METHOD_NOTES: Orally administered Posaconazole: plasma Cmax/Cavg by quartile and response rate for aspergillosis
Format: in vivo, patients
EXPERIMENTAL_SETUP: human, plasma, po, 800 mg/day, Quartile 1, n = 17
METRIC: Cmax (ng/mL)
API: value field is a number in ng/mL; no unit string.

Fill blank: measured Cmax of the compound CCC([C@@H](C)O)n1ncn(-c2ccc(N3CCN(c4ccc(OC[C@@H]5CO[C@@](Cn6cncn6)(c6ccc(F)cc6F)C5)cc4)CC3)cc2)c1=O (stereo partly shown) [Posaconazole] is ____.
142

* * *

TEST_METHOD_NOTES: Orally administered Posaconazole: plasma Cmax/Cavg by quartile and response rate for aspergillosis
Assay type: in vivo, patients
EXPERIMENTAL_SETUP: human, plasma, po, 800 mg/day, Quartile 4, n = 16
METRIC: Cmax (ng/mL)
// note: answer is a bare numeric in ng/mL

Given CCC([C@@H](C)O)n1ncn(-c2ccc(N3CCN(c4ccc(OC[C@@H]5CO[C@@](Cn6cncn6)(c6ccc(F)cc6F)C5)cc4)CC3)cc2)c1=O (stereo partly shown) , state its recorded Cmax.
1480
